B1: library; numbered along this chain (parent)
chain: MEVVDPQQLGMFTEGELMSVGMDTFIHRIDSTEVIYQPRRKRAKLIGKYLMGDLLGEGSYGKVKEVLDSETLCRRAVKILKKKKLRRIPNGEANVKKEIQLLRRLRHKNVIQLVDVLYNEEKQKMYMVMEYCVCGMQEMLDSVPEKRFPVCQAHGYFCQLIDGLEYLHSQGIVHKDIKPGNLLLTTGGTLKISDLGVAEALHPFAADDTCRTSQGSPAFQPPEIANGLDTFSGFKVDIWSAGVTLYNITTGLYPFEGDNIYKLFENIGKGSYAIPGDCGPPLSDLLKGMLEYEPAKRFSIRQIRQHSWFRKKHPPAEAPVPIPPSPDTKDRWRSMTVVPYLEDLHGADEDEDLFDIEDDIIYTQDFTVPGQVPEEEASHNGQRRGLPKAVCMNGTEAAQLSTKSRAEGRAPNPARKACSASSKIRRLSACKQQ

- Variants of: B1
- Procedure details: STK11 functional score (HeLa growth suppression), rescaled enrichment; synonymous median = 1, nonsense median = 0 (normalised score)
- Conditions: with HeLa; variant type: missense
Metric name: STK11 functional score

1) D365H	1.34
2) D348G	1.26
3) M22W	0.633
4) A225I	1.42
5) M22A	1.21
6) E291G	0.922
7) Q214F	1.04
8) P275W	0.995
9) W308S	-0.303
10) S401C	1.05
11) S31I	1.41
